# targetOrSystem: purified DHFR of the reference strain S. aureus ATCC 25923 (Staphylococcus aureus)
# Sequence (P0A017 whole entry): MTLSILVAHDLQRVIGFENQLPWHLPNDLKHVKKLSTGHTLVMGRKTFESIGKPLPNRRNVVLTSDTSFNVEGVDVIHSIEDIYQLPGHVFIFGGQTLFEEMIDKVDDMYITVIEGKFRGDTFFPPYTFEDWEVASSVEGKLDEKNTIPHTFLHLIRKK
# assaySummary: Inhibition of purified DHFR of reference strain S. aureus ATCC 25923
Counter-ions that a name gives are not always drawn.
Strictly below 1 nM in IC50: Condition met. Otherwise: Condition not met.

## Input Say whether its IC50 is strictly beneath 1 nM. Entry: CCOC(=O)c1cn(CC)c2cc(C#Cc3cc(Cc4cnc(N)nc4N)cc(OC)c3OC)ccc2c1=O [Example 12g]
## Output Condition not met

## Input Entry COc1cc(Cc2cnc(N)nc2N)cc(-c2ccc3ccccc3c2)c1OC [Example 4h] please
## Output Condition not met

## Input Same for COc1cc(Cc2cnc(N)nc2N)cc(C=Cc2ccc3ccccc3c2)c1OC [Example 10b]
## Output Condition not met

## Input Same question for COc1cc(Cc2cnc(N)nc2N)cc(-c2cc3c(cc2F)c(=O)c(C(=O)O)cn3C2CC2)c1OC [Example 9a, trifluoroacetate] please.
## Output Condition met

## Input Further, for COc1cc(Cc2cnc(N)nc2N)cc(C#Cc2ccc3c(=O)c(C(=O)O)cn(Cc4ccccc4)c3c2)c1OC [Example 16p, hydrochloride] ?
## Output Condition not met
